self-splicing fitness (ln) values, listed per item
# test_details: self-splicing fitness, log relative to wild type (ln ratio); higher = more splicing; Tetrahymena group I intron in knt gene, E. coli kanamycin selection, DiMSum; sequences stand for … in CUCUCU…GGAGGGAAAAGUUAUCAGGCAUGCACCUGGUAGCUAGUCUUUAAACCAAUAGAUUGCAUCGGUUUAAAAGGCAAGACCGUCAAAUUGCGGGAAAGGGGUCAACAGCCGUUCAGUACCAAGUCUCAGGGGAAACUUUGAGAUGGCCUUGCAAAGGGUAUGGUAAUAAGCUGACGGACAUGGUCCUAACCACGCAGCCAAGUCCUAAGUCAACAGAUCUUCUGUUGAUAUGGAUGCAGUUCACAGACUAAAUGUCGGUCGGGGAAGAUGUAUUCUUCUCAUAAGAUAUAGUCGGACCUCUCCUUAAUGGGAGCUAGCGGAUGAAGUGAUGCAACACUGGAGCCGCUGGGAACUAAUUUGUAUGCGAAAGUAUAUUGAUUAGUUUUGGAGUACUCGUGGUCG;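 note: selection with 25 µg/mL kanamycin versus none on LB agar overnight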
# condition_label: 30 °C
property_measured: self-splicing fitness (ln)

- residue_codes: "CUCGAGCAAUAUUACGUCAC"
  property_measured: "self-splicing fitness (ln)"
  recorded_measurement: -3.1
- residue_codes: "GUCUAGCAAUAUUACGUAUA"
  property_measured: "self-splicing fitness (ln)"
  recorded_measurement: -1.41
- residue_codes: "UACGAGCAAUAUUACGAUAU"
  property_measured: "self-splicing fitness (ln)"
  recorded_measurement: -2.39
- residue_codes: "GCCCAGCAAUAUUACGGUUA"
  property_measured: "self-splicing fitness (ln)"
  recorded_measurement: -0.529
- residue_codes: "CGUCAGCAAUAUUACGUGGU"
  property_measured: "self-splicing fitness (ln)"
  recorded_measurement: -3.59
- residue_codes: "CGUCAGCAAUAUUACGUUGU"
  property_measured: "self-splicing fitness (ln)"
  recorded_measurement: -3.9
- residue_codes: "GGAUAGCAAUAUUACGCGCA"
  property_measured: "self-splicing fitness (ln)"
  recorded_measurement: -0.345
- residue_codes: "GCAAAGCAAUAUUACGAUAC"
  property_measured: "self-splicing fitness (ln)"
  recorded_measurement: -1.69
- residue_codes: "CGCUAGCAAUAUUACGGGCG"
  property_measured: "self-splicing fitness (ln)"
  recorded_measurement: -2.95
- residue_codes: "CUGAAGCAAUAUUACGGGAG"
  property_measured: "self-splicing fitness (ln)"
  recorded_measurement: -0.441
- residue_codes: "GGUAAGCAAUAUUACGGUAG"
  property_measured: "self-splicing fitness (ln)"
  recorded_measurement: -3.72
- residue_codes: "AGCCAGCAAUAUUACGUAUA"
  property_measured: "self-splicing fitness (ln)"
  recorded_measurement: -3.4
- residue_codes: "UUAGAGCAAUAUUACGUAAA"
  property_measured: "self-splicing fitness (ln)"
  recorded_measurement: -2.69
- residue_codes: "UUUGAGCAAUAUUACGUGUC"
  property_measured: "self-splicing fitness (ln)"
  recorded_measurement: -4.05
- residue_codes: "UGCGAGCAAUAUUACGACGG"
  property_measured: "self-splicing fitness (ln)"
  recorded_measurement: -1.41
- residue_codes: "GAGGAGCAAUAUUACGUGAC"
  property_measured: "self-splicing fitness (ln)"
  recorded_measurement: -1.97
- residue_codes: "AGGCAGCAAUAUUACGACAG"
  property_measured: "self-splicing fitness (ln)"
  recorded_measurement: -1.61

Hey, just so you know, these numbers are from the supplement of paper PMC7877785.
